Taken from PubChem BioAssay (NCI).

Tested on: A549 NSCLC
assayProcedure: NCI tumour cell line growth inhibition, 48 h
Recorded TGI for the following molecules

molecule	TGI
Cc1ccc2cc3c(ccc4ccccc43)c3c2c1CC3	> 100 µM
CN(CC(=O)O)c1ccc(/C=C/c2ccnc3ccccc23)cc1	61.4 µM

[in] Can you share its TGI? I mean this molecule: COC(=O)C12OC(C)(C(CC(=O)OC(C)(C)C)C1=O)C1C(=O)N(c3ccccc3)C(=O)C12 (stereo unspecified)
[out] > 100 µM

[in] Same read-out for `C(=C\c1nccs1)/c1cccc(/C=C/c2nccs2)n1` ?
[out] > 50 µM

[in] Same read-out for `COc1ccc(-c2cnnn2-c2cc(OC)c3c(c2)OCO3)cc1` ?
[out] > 100 µM

[in] Same read-out for O=c1c2cc(Br)ccc2nc(-c2ccccc2Cl)n1NCC1(O)OCC(O)C(O)C1O (stereo unspecified) ?
[out] > 100 µM

---

Recorded TGI for the following compounds
Tested on: SK-MEL-5 melanoma
assayProcedure: NCI tumour cell line growth inhibition, 48 h

compound	valueReported
COc1ccc(N(C)Sc2ccccc2)cc1	> 100 µM
COc1ccc(C/C(C)=C(\c2ccc(OCCN3CCOCC3)cc2)c2ccc(OC(=O)Cc3ccccc3)cc2)cc1	0.93 µM
CN1CCN(c2cc3c(cc2F)c(=O)c(C(=O)O)cn3C2CC2)CC1CC#N (stereo not drawn)	> 100 µM
O=C1Nc2ccccc2C1Cc1ccc([N+](=O)[O-])cc1 (stereo not drawn)	> 100 µM
C=CCOC1OC(CS(=O)(=O)O)C(O)C(O)C1O (stereo not drawn)	> 100 µM

[in] Can you share its TGI? I mean this compound: `Cn1ccc2c(c1=O)C(=O)c1nccc3c1c-2nc1ccccc13`
[out] 2.84 µM

---

Recorded TGI for the following compounds
Tested on: HOP-62 NSCLC
assayProcedure: NCI tumour cell line growth inhibition, 48 h

Solved entries:
compound	TGI
CC(=O)O[C@@H]1[C@H]2[C@@H](OC(=O)c3ccccc3)[C@@H](C)C[C@]2(O)[C@H](OC(C)=O)[C@@]2(C)[C@@H]3CC(C)(C)C(=O)[C@]3(OC(C)=O)C[C@@]12C	> 25 µM
Cc1ccc(S(=O)(=O)NNC(=O)c2sc(-c3nc(C)c(C(=O)NNS(=O)(=O)c4ccc(C)cc4)s3)nc2C)cc1	> 100 µM
COc1ccc(Cc2c(N)[nH]c(=O)n(C)c2=O)cc1	> 100 µM
CC1(C)C2CCC(N)(C2)C1N (stereo unspecified)	> 100 µM
Nc1ccn(CCO)c(=O)n1	> 100 µM

[in] Can you share its TGI? I mean this compound: `Cc1cccc(NC(=O)c2cc3cc(N=Nc4ccccc4Cl)ccc3oc2=O)c1`
[out] > 100 µM

---

Test system: CAKI-1 renal
assayProcedure: NCI tumour cell line growth inhibition, 48 h
Recorded TGI for the following compounds

Solved entries:
compound	valueReported
CCc1ccccc1N1CCN(C(=O)c2cc(OC)c(OC)c(OC)c2)CC1	43 µM
O=Cc1cn(Cc2cccc(Cl)c2)c2ccccc12	1.89 µM
COc1cc(C[C@H]2C(=O)OC[C@@H]2Cc2ccc(OC)c(OC)c2)cc(OC)c1	> 100 µM
CCOP(=O)(OCC)C(Nc1cccc([N+](=O)[O-])c1)c1ccccc1 (centres undefined)	> 100 µM
C=C1CC2(C[C@@H](c3ccccc3)O[C@@H](c3ccccc3)C2)OC1=O (some centres undefined)	4.53 µM
O=C(O)CCC(NC(=O)c1ccc(Nc2cnc3ccc(C(F)(F)F)cc3n2)cc1)C(=O)O (centres undefined)	> 100 µM
COc1ccc(-c2cc(-c3ccc(Nc4ccnc5cc(Cl)ccc45)cc3)nc(N)c2C#N)cc1	> 100 µM
CC(=O)OC1COC(n2nc(/C=C/c3ccc(Cl)cc3)c(=O)n(/N=C/c3ccccc3)c2=S)C(OC(C)=O)C1OC(C)=O (centres undefined)	> 100 µM

[in] // lookup TGI | system=CAKI-1 renal | key= `COC(=O)[C@@H](O)[C@]1(C(=O)OC)C2O[C@@H](OC)[C@@H]1CCCCCC[C@H]2O`
[out] > 100 µM

[in] Same read-out for `NC(=O)NO` ?
[out] 1720 µM

[in] Same read-out for `C/C(=C\c1ccn(-c2ccc(N)c(F)c2)n1)[C@@H]1C[C@@H]2O[C@]2(C)CCC[C@H](C)[C@H](O)[C@@H](C)C(=O)C(C)(C)[C@@H](O)CC(=O)O1` ?
[out] > 50 µM

---

Test system: OVCAR-4 ovarian
assayProcedure: NCI tumour cell line growth inhibition, 48 h
resultType: TGI

compound	assayTarget	resultType	valueReported
Cn1c(=O)c(Oc2ccc(F)cc2F)cc2cnc(NC(CO)CO)nc21	OVCAR-4 ovarian	TGI	> 25 µM
COc1ccc(-c2nnc(SCC(=O)Nc3ccc(/C(C)=N\O)cc3)n2-c2ccccc2)cc1OC	OVCAR-4 ovarian	TGI	> 100 µM
CCN(CC)CCC1CCCCN1CC(=O)N1c2ccccc2NC(=O)c2ccccc21 (centres undefined)	OVCAR-4 ovarian	TGI	> 100 µM
CN(C)CCNC(=O)c1ccc(C(=O)NCCN(C)C)c2nc3ccccc3cc12	OVCAR-4 ovarian	TGI	3.52 µM
COc1ccc(C(=O)COc2cccc(/C=C3\CSc4ccccc4C3=O)c2)cc1	OVCAR-4 ovarian	TGI	9.87 µM
FC(F)(F)C(C1=NC(C(F)(F)F)(C(F)(F)F)N=C(N2CCOCC2)O1)C(F)(F)F	OVCAR-4 ovarian	TGI	66.1 µM
O=Cc1cn(Cc2cccc(Cl)c2)c2ccccc12	OVCAR-4 ovarian	TGI	18.3 µM
Cc1nn(C(=O)c2ccncc2)c2c1C(c1ccc(Cl)cc1)SC(N)=N2 (centres undefined)	OVCAR-4 ovarian	TGI	> 10 µM

[in] Can you share its TGI? I mean this compound: `N=c1c2c(-c3ccccc3)c(-c3ccccc3)n(Cc3ccccc3)c2ncn1CCCO`
[out] 13.4 µM

[in] Same read-out for COC(=O)C12OC(C)(C(CC(=O)OC(C)(C)C)C1=O)C1C(=O)N(c3ccccc3)C(=O)C12 (centres undefined) ?
[out] > 100 µM

[in] Same read-out for `COc1cc2nc(-c3cccs3)nc(N3C(c4ccc(O)cc4)=NNC(=O)c4ccccc43)c2cc1OC` ?
[out] > 100 µM

[in] Same read-out for `Nc1c(Br)c(=O)[nH]c(=O)n1COCCO` ?
[out] > 100 µM

[in] Same read-out for `O=C(O)CCSCCCN1C(=O)c2ccccc2C1=O` ?
[out] > 100 µM

[in] Same read-out for COc1ccc(C(Cc2cc(OC)c(OC)c(OC)c2)C(=O)O)cc1 (centres undefined) ?
[out] > 100 µM

---

Recorded TGI for the following compounds
System: MOLT-4 leukemia
assayProcedure: NCI tumour cell line growth inhibition, 48 h

[in] // lookup TGI | system=MOLT-4 leukemia | key= CCOP(=O)(OCC)C(Nc1cccc([N+](=O)[O-])c1)c1ccccc1 (stereo not given)
[out] > 100 µM

[in] Same read-out for CC(C)C1OC2(C)OC(=N)C1(C#N)C(C#N)(C#N)C2C (stereo not given) ?
[out] > 100 µM

[in] Same read-out for CN1CCN(c2cc3c(cc2F)c(=O)c(C(=O)O)cn3C2CC2)CC1CC#N (stereo not given) ?
[out] > 100 µM

[in] Same read-out for `Cc1cc(NC(=O)NC(=O)c2ccccc2N)ccc1Oc1ncc(Br)cn1` ?
[out] > 30.3 µM

[in] Same read-out for `Cc1cccc2c(=O)c3c(O)cc(O)cc3[nH]c12` ?
[out] > 10 µM

---

Test system: SF-295 CNS
assayProcedure: NCI tumour cell line growth inhibition, 48 h
resultType: TGI (µM)
Expressed in µM, but write only the number.

molecule	TGI, µM
COc1ccc(C2C3CCc4ccccc4C3=NN2S(=O)(=O)c2ccc(Cl)cc2)cc1 (configuration not stated)	50.9
O=C1CCCCC1=C(I)I	65.8

Note: attention shifts to another entry.
[in] Can you share its TGI? I mean this molecule: CCOP1(=O)C=C(Sc2ccc([N+](=O)[O-])cc2[N+](=O)[O-])C(C)(C)O1 (configuration not stated)
[out] 40.8

---

System: SK-MEL-5 melanoma
assayProcedure: NCI tumour cell line growth inhibition, 48 h
resultType: TGI

Solved entries:
compound	assayTarget	TGI
CCN(CCCN(CC)C(=O)Nc1ccccc1)C(=O)Nc1ccccc1	SK-MEL-5 melanoma	> 100 µM
COC(=O)C1=C(C(=O)OC)C2C(C)=CC(C)=CN2C(C#N)=C(SC)S1 (configuration not stated)	SK-MEL-5 melanoma	30.7 µM

Note: attention shifts to another entry.
[in] Can you share its TGI? I mean this compound: `CC(C)[C@@]12C[C@@H](OC(=O)COC(=O)/C=C/c3ccccc3)[C@@](C)(O1)[C@@H]1CC[C@@H](C)[C@H]1[C@@H]2OC(=O)/C=C/c1ccccc1`
[out] > 100 µM
